- experiment-notes: Cataleptogenic power (extrapyramidal side effects)
- details: rat, in vivo; rats, oral administration; read-out: Catalepsy ED50
assay-endpoint: ED50

Lookup: Annotate the molecule CC(C)Oc1ccc(F)cc1OCCNCc1cccc(-c2ccsc2)c1 [la] with its measured ED50.
Found: > 40 mg/kg

Origin of measurements: patent US6417222B1
